# assay_details: RP, Waters ACQUITY UPLC BEH C18, 100 × 1 mm, 1.7 µm, 50 °C, 0.3 mL/min, estimated dead time 0.17 min; A: water + 0.1% formic acid + 20 mM ammonium formate; B: methanol + 0.1% formic acid + 20 mM ammonium formate; gradient (min/%B) 0/0 15/100 21/100 22/0 30/0
# settings: stereoisomer not certain
Property: LC retention time; scope: individual molecules

{"molecule": "Cc1cccc(C)c1NC(=O)CCl", "LC retention time, min": 10.2}
{"molecule": "CCCSc1ccc2nc(NC(=O)OC)[nH]c2c1", "LC retention time, min": 13.1}
{"molecule": "O=C1NC(=O)C(c2ccccc2)(c2ccccc2)N1", "LC retention time, min": 12}
{"molecule": "CC=C1CC(C)C(O)(CO)C(=O)OCC2=CC[N+]3([O-])CCC(OC1=O)C23 (stereo not given) [Retrorsine N-oxide]", "LC retention time, min": 7.74}
{"molecule": "CC(C)CCCCCCOC(=O)c1ccccc1C(=O)OCCCCCCC(C)C [Di-iso-nonylphthalate]", "LC retention time, min": 19.7}

---

Property: LC retention time; scope: individual molecules
# assay_details: RP, Waters ACQUITY UPLC BEH C18, 100 × 1 mm, 1.7 µm, 50 °C, 0.3 mL/min, estimated dead time 0.17 min; A: water + 10 mM ammonium bicarbonate; B: 10% water + 90% methanol + 10 mM ammonium bicarbonate; gradient (min/%B) 0/0 15/100 21/100 22/0 30/0
# settings: stereoisomer not certain

{"molecule": "CC(C)N(Cc1ccccc1)C(=O)C(C)(C)C", "readout_units": "min", "LC retention time": 14.3}
{"molecule": "CN(C)c1nc(=O)n(C2CCCCC2)c(=O)n1C", "readout_units": "min", "LC retention time": 11.9}
{"molecule": "CNCCCC(C#N)(c1ccc(OC)c(OC)c1)C(C)C (stereo not given)", "readout_units": "min", "LC retention time": 12.4}
{"molecule": "Cc1ccc(NS(=O)(=O)N(C)C)cc1", "readout_units": "min", "LC retention time": 12.1}
{"molecule": "CCCN(CCC)CCc1cccc2c1CC(=O)N2", "readout_units": "min", "LC retention time": 15.2}
{"molecule": "N#Cc1c(O)c(Cl)c(Cl)c(C#N)c1Cl [Chlorothalonil-4-hydroxy]", "readout_units": "min", "LC retention time": 11.8}
{"molecule": "FC(F)C(F)(F)OCC(Cn1cncn1)c1ccc(Cl)cc1Cl (stereo not given)", "readout_units": "min", "LC retention time": 15.3}
{"molecule": "CCN(CC)CCNC(=O)c1cc(S(C)(=O)=O)ccc1OC [Tiapride]", "readout_units": "min", "LC retention time": 10.8}
{"molecule": "CCCCOCCOCCOCCOCCO", "readout_units": "min", "LC retention time": 12}
{"molecule": "CC(=O)C1(O)CCC2C3C=C(Cl)C4=CC(=O)C5CC5C4(C)C3CCC21C (stereo not given)", "readout_units": "min", "LC retention time": 14.9}

---

# assay_details: RP, Waters ACQUITY UPLC BEH C18, 100 × 1 mm, 1.7 µm, 50 °C, 0.3 mL/min, estimated dead time 0.17 min; A: water + 0.1% formic acid + 20 mM ammonium formate; B: methanol + 0.1% formic acid + 20 mM ammonium formate; gradient (min/%B) 0/0 15/100 21/100 22/0 30/0
# settings: stereoisomer not certain
Property: LC retention time; scope: individual molecules
measured_metric: LC retention time (min)

{"molecule": "CC(C)c1nc(CN(C)C(=O)NC(C(=O)NC(Cc2ccccc2)CC(O)C(Cc2ccccc2)NC(=O)OCc2cncs2)C(C)C)cs1 (stereo not drawn)", "measured_metric": "LC retention time", "numeric_result": 15.9}
{"molecule": "CCOC(=O)CCN(SN(C)C(=O)Oc1cccc2c1OC(C)(C)C2)C(C)C", "measured_metric": "LC retention time", "numeric_result": 16.6}
{"molecule": "CC(=O)OC1CCN2CC=C(COC(=O)C(O)(C(C)C)C(C)O)C12 (stereo not drawn)", "measured_metric": "LC retention time", "numeric_result": 8.13}
{"molecule": "NC(=O)N1c2ccccc2C2OC2c2ccccc21 (stereo not drawn) [Carbamazepine-10,11-epoxide]", "measured_metric": "LC retention time", "numeric_result": 10.9}
{"molecule": "CNC(=O)Oc1cccc2c1OC(C)(C)C2", "measured_metric": "LC retention time", "numeric_result": 11.8}
{"molecule": "CCCc1nc(C)c2c(=O)[nH]c(-c3cc(S(=O)(=O)N4CCN(CC)CC4)ccc3OCC)nn12", "measured_metric": "LC retention time", "numeric_result": 12.2}
{"molecule": "O=C(O)c1cn(C2CC2)c2cc(N3CCNCC3)c(F)cc2c1=O", "measured_metric": "LC retention time", "numeric_result": 8.34}
{"molecule": "COc1cc(Cl)c(OC)cc1N", "measured_metric": "LC retention time", "numeric_result": 10.4}
{"molecule": "OC1C=C2CCN3Cc4cc5c(cc4C(C1O)C23)OCO5 (stereo not drawn)", "measured_metric": "LC retention time", "numeric_result": 4.33}
{"molecule": "CC=C(C)C(=O)NCC(=O)O", "measured_metric": "LC retention time", "numeric_result": 6.4}
{"molecule": "C=C1CC2C(CCC3(C)C(=O)CCC23)C2(C)C=CC(=O)C=C12 (stereo not drawn)", "measured_metric": "LC retention time", "numeric_result": 14}
{"molecule": "c1ccc(Oc2ccccc2)cc1", "measured_metric": "LC retention time", "numeric_result": 13.5}
{"molecule": "[NH3+][C@@H](Cc1cc(I)c(Oc2cc(I)c(O)c(I)c2)c(I)c1)C(=O)[O-]", "measured_metric": "LC retention time", "numeric_result": 14.1}
{"molecule": "Cc1ccc(NS(=O)(=O)N(C)C)cc1", "measured_metric": "LC retention time", "numeric_result": 12}
{"molecule": "CC(=O)CCCCn1c(=O)c2c(ncn2C)n(C)c1=O", "measured_metric": "LC retention time", "numeric_result": 9.87}
{"molecule": "O=Cc1ccccc1Nc1ccccc1Cl", "measured_metric": "LC retention time", "numeric_result": 15.7}
{"molecule": "CCCCCCCCC=CCCCCCCCCCCCC(N)=O [Erucamide]", "measured_metric": "LC retention time", "numeric_result": 19.6}
{"molecule": "COc1ccc2c3c1OC1C(O)C=CC4C(C2)N(C)CCC341 (stereo not drawn)", "measured_metric": "LC retention time", "numeric_result": 6.77}

---

# assay_details: RP, Waters ACQUITY UPLC BEH C18, 100 × 1 mm, 1.7 µm, 50 °C, 0.3 mL/min, estimated dead time 0.17 min; A: water + 10 mM ammonium bicarbonate; B: 10% water + 90% methanol + 10 mM ammonium bicarbonate; gradient (min/%B) 0/0 15/100 21/100 22/0 30/0
# settings: stereoisomer not certain

{"compound": "O=P(OCCCCl)(OCCCCl)OCCCCl [Tris(3-chloropropyl) phosphate]", "LC retention time [min]": 14.6}
{"compound": "Oc1ccc(C(c2ccc(O)cc2)(C(F)(F)F)C(F)(F)F)cc1 [Bisphenol AF]", "LC retention time [min]": 14.7}
{"compound": "CCS(=O)(=O)c1nnc(N(C)C(=O)NC)s1 [Ethidimuron]", "LC retention time [min]": 8.81}
{"compound": "CCOC(=O)Nc1cccc(OC(=O)Nc2ccccc2)c1 [Desmedipham]", "LC retention time [min]": 13.6}
{"compound": "Nc1ccccc1C(=O)O [Anthranilic acid]", "LC retention time [min]": 2.1}
{"compound": "COP(=O)(OC)SCn1c(=O)oc2cc(Cl)cnc21 [Azamethiphos]", "LC retention time [min]": 11.6}
{"compound": "CC(C)OC(=O)c1ccccc1C(=O)OC(C)C [Diisopropylphthalate]", "LC retention time [min]": 15.4}
{"compound": "CCC(C)C(=O)OC1CC(C)C=C2C=CC(C)C(CCC3CC(O)CC(=O)O3)C21 (centres undefined) [Lovastatin]", "LC retention time [min]": 17.2}
{"compound": "CC(C)NCC(O)COc1cccc2[nH]ccc12 (centres undefined) [Pindolol]", "LC retention time [min]": 10.2}
{"compound": "CNC(=O)Oc1cc(C)cc(C(C)C)c1 [Promecarb]", "LC retention time [min]": 15}
{"compound": "CCC1C(=O)OCC1Cc1cncn1C (centres undefined) [Pilocarpine]", "LC retention time [min]": 8.77}
{"compound": "Cc1cccc(C)c1NC(=O)C1CCCCN1C (centres undefined) [Mepivacaine]", "LC retention time [min]": 13.1}
{"compound": "CC(=O)N(C)c1ccccc1 [N-Methylacetanilide]", "LC retention time [min]": 11.2}
{"compound": "NS(=O)(=O)c1ccccc1 [Benzenesulfonamide]", "LC retention time [min]": 12.8}
{"compound": "CNCC(c1ccc(O)cc1)C1(O)CCCCC1 (racemic) [rac N,O-Didesmethyl Venlafaxine]", "LC retention time [min]": 15.4}
{"compound": "O=[N+]([O-])c1ccc(O)c([N+](=O)[O-])c1 [2,4-Dinitrophenol]", "LC retention time [min]": 6.21}
{"compound": "Cc1[nH]c(=O)n(C(C)(C)C)c(=O)c1Cl [Terbacil]", "LC retention time [min]": 12}
{"compound": "O=C(O)C(F)(F)C(F)(F)C(F)(F)C(F)(F)C(F)(F)C(F)(F)C(F)(F)C(F)(F)C(F)(F)F [Perfluorodecanoic acid]", "LC retention time [min]": 16.1}
{"compound": "CCON=C(OC(=O)c1ccccc1)c1c(OC)ccc(Cl)c1OC [Benzoximate]", "LC retention time [min]": 16.3}
